// reported mortality at 12.5 ppm per item
Tested on: Tetranychus urticae
ASSAY PROCEDURE: Acaricidal activity against Tetranychus urticae (two-spotted spider mite) infested kidney bean leaf assessed as mortality at 12.5 ppm after 5 days
Assay type: functional
CONDITIONS: 120 h

{"MOLECULE": "Cn1nc2c(c1C(=O)NCc1ccc(C(C)(C)C)cc1)CCCC2", "READING UNIT": "%", "mortality at 12.5 ppm": 0}
{"MOLECULE": "CCC(C)c1ccc(CNC(=O)c2c3c(nn2C)CCC3)cc1 (stereo not drawn)", "READING UNIT": "%", "mortality at 12.5 ppm": 1}
{"MOLECULE": "CC(C)c1ccc(CNC(=O)c2c3c(nn2C)CCC3)cc1", "READING UNIT": "%", "mortality at 12.5 ppm": 1}
